target: human prolyl oligopeptidase (Homo sapiens (Human)); test: POP inhibition assay (Z-G-P-AMC substrate, fluorimetric); type: biochemical; conditions: 100 mM Na/K phosphate buffer, pH 8.0, hPOP 20 to 60 nM, Z-G-P-AMC, 1 hour at 37° C.; read-out: IC50, inhibition of human prolyl oligopeptidase
Sequence (P48147 whole entry): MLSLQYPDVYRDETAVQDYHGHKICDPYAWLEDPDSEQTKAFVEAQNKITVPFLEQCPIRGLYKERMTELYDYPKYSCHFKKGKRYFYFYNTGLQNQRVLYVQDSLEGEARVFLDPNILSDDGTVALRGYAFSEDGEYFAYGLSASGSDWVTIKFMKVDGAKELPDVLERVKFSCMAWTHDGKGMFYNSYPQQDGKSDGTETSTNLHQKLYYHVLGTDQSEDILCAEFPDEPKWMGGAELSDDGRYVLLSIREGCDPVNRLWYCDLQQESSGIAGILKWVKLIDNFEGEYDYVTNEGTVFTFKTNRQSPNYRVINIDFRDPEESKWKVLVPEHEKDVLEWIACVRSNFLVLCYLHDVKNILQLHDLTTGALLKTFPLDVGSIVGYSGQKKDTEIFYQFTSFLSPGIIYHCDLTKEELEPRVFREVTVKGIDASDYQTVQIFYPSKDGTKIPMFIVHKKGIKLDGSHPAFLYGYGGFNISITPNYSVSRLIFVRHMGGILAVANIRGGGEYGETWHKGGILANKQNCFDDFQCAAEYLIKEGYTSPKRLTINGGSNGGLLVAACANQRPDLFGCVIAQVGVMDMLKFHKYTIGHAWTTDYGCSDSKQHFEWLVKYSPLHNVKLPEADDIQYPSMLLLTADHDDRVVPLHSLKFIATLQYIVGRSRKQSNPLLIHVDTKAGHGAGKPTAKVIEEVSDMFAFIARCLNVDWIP
endpoint: IC50 (nM)

> print(dat)
                                   compound  readout.value
1  COc1cc(C(=O)N2C[C@@H](C(F)(F)F)C[C@H]2C(=O)N2CCC[C@H]2C#N)cc(OC)c1OCc1ccccc1 [Example 8]            176

[A] COc1cc(C(=O)N2C[C@H](F)C[C@H]2C(=O)N2CCC[C@H]2C#N)cc(OC)c1OCc1ccccc1 [Example 2]
[B] COc1cc(C(=O)N2CC(F)(F)C[C@H]2C(=O)N2CCC[C@H]2C#N)cc(OC)c1OC(C)=O [Example 11]
Ask | Between these two entries, A and B , state which has the higher IC50. # answer = label of selected item
Reply | B

###

target: human prolyl oligopeptidase (Homo sapiens (Human)); test: POP inhibition assay (Z-G-P-AMC substrate, fluorimetric); format: biochemical; settings: Conditions B: 100 mM Tris-acetate, 10 mM BSA, 1 mM DTT, pH 7.3, hPOP 10 nM; read-out: IC50, inhibition of human prolyl oligopeptidase, measured in conditions B
endpoint: IC50 (µM)

> print(dat)
                                item.smiles  output.unit  readout.value
1  COc1cc(C(=O)N2C[C@@H](C)C[C@H]2C(=O)N2CCC[C@H]2C#N)cc(OC)c1OCc1ccccc1           µM         0.0131
2  N#C[C@@H]1CCCN1C(=O)[C@@H]1CC(F)(F)CN1C(=O)c1ccc(OCc2ccccc2)cc1           µM          0.287
3  N#C[C@@H]1CCCN1C(=O)[C@@H]1CC(F)(F)CN1C(=O)c1ccc(OCc2ccccc2)c(F)c1           µM          0.005

[a] N#C[C@@H]1CCCN1C(=O)[C@@H]1CC(F)(F)CN1C(=O)c1ccc(OCc2ccccc2)c(C(F)(F)F)c1
[b] N#C[C@@H]1CCCN1C(=O)[C@@H]1CC(F)(F)CN1C(=O)c1cccc(OCc2ccccc2)c1
Ask | Please indicate which entry, a or b , has the lower recorded IC50 value. Answer with the label corresponding to your selection.
Reply | a
(a: 0.0045 µM, b: 0.487 µM)

###

assay: Parallel artificial membrane permeability assay (PAMPA); type: in vitro ADME; settings: PAMPA; 200 μM initial concentration, pH 7.4, 4 hours, room temperature; read-out: Effective permeability Pe
endpoint: Papp at 4 h, 200 μM (×10⁻⁶ cm/s)

// known answers, use as guide
> print(dat)
                                item.smiles             endpoint  readout.value
1  COc1cc(C(=O)N2C[C@H](F)C[C@H]2C(=O)N2CCC[C@H]2C#N)cc(OC)c1OCc1ccccc1  Papp at 4 h, 200 μM           7.28
2  COc1cc(C(=O)N2C[C@@H](C(F)(F)F)C[C@H]2C(=O)N2CCC[C@H]2C#N)cc(OC)c1OCc1ccccc1  Papp at 4 h, 200 μM           5.07
3  COc1cc(C(=O)N2CC(F)(F)C[C@H]2C(=O)N2CCC[C@H]2C#N)cc(OC)c1OC(=O)c1ccccc1  Papp at 4 h, 200 μM            2.1

[1] COc1cc(C(=O)N2C[C@H](c3ccccc3)C[C@H]2C(=O)N2CCC[C@H]2C#N)cc(OC)c1OCc1ccccc1
[2] N#C[C@@H]1CCCN1C(=O)[C@@H]1CC(F)(F)CN1C(=O)c1cccc(OCc2ccccc2)c1
[3] N#C[C@@H]1CCCN1C(=O)[C@@H]1CC(F)(F)CN1C(=O)c1ccccc1OCc1ccccc1
[4] COc1cc(C(=O)N2CC(F)(F)C[C@H]2C(=O)N2CCC[C@H]2C#N)cc(OC)c1OCc1ccccc1
Ask | Rank ascending by Papp at 4 h, 200 μM. I would appreciate it if you listed the labels in the requested order.
Reply | 1, 2, 3, 4

###

test: Parallel artificial membrane permeability assay (PAMPA); type: in vitro ADME; conditions: 200 μM initial concentration, pH 7.4, 4 hours, room temperature
endpoint: % T (percentage of transport) (%)

Record excerpt, results attached:
> print(dat)
                                item.smiles  readout.value
1  COc1cc(C(=O)N2C[C@H](OC)C[C@H]2C(=O)N2CCC[C@H]2C#N)cc(OC)c1OCc1ccccc1            4.3
2  N#C[C@@H]1CCCN1C(=O)[C@@H]1CC(F)(F)CN1C(=O)c1ccccc1OCc1ccccc1          17.55
3  COc1cc(C(=O)N2C[C@@H](C)C[C@H]2C(=O)N2CCC[C@H]2C#N)cc(OC)c1OCc1ccccc1          14.76
4  COc1cc(C(=O)N2C[C@@H](SC)C[C@H]2C(=O)N2CCC[C@H]2C#N)cc(OC)c1OCc1ccccc1          17.03
5  N#C[C@@H]1CCCN1C(=O)[C@@H]1CC(F)(F)CN1C(=O)c1ccc(OCc2ccccc2)c(C(F)(F)F)c1           2.64

[I] N#C[C@@H]1CCCN1C(=O)[C@@H]1CC(F)(F)CN1C(=O)c1ccc(OCc2ccccc2)cc1
[II] COc1cc(C(=O)N2C[C@H](c3ccccc3)C[C@H]2C(=O)N2CCC[C@H]2C#N)cc(OC)c1OCc1ccccc1
[III] COc1cc(C(=O)N2CC(F)(F)C[C@H]2C(=O)N2CCC[C@H]2C#N)cc(OC)c1OCc1ccccc1
Ask | Your job: order these 3 records by % T (percentage of transport), ascending. Labels, ranked as asked.
Reply | II, I, III
(II: 5.72%, I: 14.12%, III: 29.92%)

[1] N#C[C@@H]1CCCN1C(=O)[C@@H]1CC(F)(F)CN1C(=O)c1cccc(OCc2ccccc2)c1
[2] COc1cc(C(=O)N2CC(F)(F)C[C@H]2C(=O)N2CCC[C@H]2C#N)cc(OC(=O)C(C)(C)C)c1OC
Ask | Response body: label of entry with the larger % T (percentage of transport); valid values 1 , 2 . Label of pick, please.
Reply | 2

###

target: human prolyl oligopeptidase (Homo sapiens (Human)); assay: POP inhibition assay (Z-G-P-AMC substrate, fluorimetric); assay type: biochemical; conditions: 100 mM Na/K phosphate buffer, pH 8.0, hPOP 20 to 60 nM, Z-G-P-AMC, 1 hour at 37° C.; read-out: IC50, inhibition of human prolyl oligopeptidase
pIC50: −log10 of the molar value.
endpoint: pIC50

// solved cases for pIC50 follow
> print(dat)
                                   compound  endpoint  readout.value
1  COc1cc(C(=O)N2CC(F)(F)C[C@H]2C(=O)N2CCC[C@H]2C#N)cc(OC)c1OC(=O)c1ccccc1 [Example 12]     pIC50           6.95
2  COc1cc(C(=O)N2CC(F)(F)C[C@H]2C(=O)N2CCC[C@H]2C#N)cc(OC)c1OCc1ccccc1 [Example 4]     pIC50           7.31

[P] COc1cc(C(=O)N2C[C@H](OC)C[C@H]2C(=O)N2CCC[C@H]2C#N)cc(OC)c1OCc1ccccc1 [Example 1]
[Q] COc1cc(C(=O)N2C[C@H](OC(C)(C)C)C[C@H]2C(=O)N2CCC[C@H]2C#N)cc(OC)c1OCc1ccccc1 [Example 9]
Ask | Kindly identify the item with the lower pIC50 figure among these two: P and Q Write the label of whichever entry you select.
Reply | Q
(Q: 6.18, P: 7.20)
